System: brains, heart, liver, muscle, and DRG of the NHPs
assayExplanation: Maturation of TTM-001 and TTM-002 capsids, NGS enrichment in NHP tissues
Assay type: in vivo
details: NHP liver DNA; NGS; relative to AAV9 control
Source text: This Example describes maturation of the AAV9 capsid variants, TTM-001 (SEQ ID NO: 981 (amino acid) and 983 (DNA), comprising SEQ ID NO: 941 (encoded by SEQ ID NO: 942)) and TTM-002 (SEQ ID NO: 982 (amino acid) and 984 (DNA), comprising SEQ ID NO: […] (encoded by SEQ ID NO: 944)) in NHPs to further enhance their transduction and biodistribution in the central nervous system as well as other tissues, and evolve the AAV capsid variants to provide further cross-species compatibility. […]
Mark each entry Met if its Fold Enrichment relative to AAV9, Liver DNA (NHP) sits below 2 fold, and Not met for all others.

Example entries begin here.
polymerSequence | assignedCategory
KTINGSGSPHSKCSVQQT | Met
KTINGSGSPHVPWQNQQT | Not met
KTRTRSGSPHSKAQNQQT | Not met
KTINGSGSPHSKRVVQQT | Met
KTRRPSGSPHSKAQNQQT | Not met

Task item: Given `KTINGSGSPHSKAQFILT` , is recorded Fold Enrichment relative to AAV9, Liver DNA (NHP) strictly lower than 2 fold?
Reply: Not met

Task item: // repeat for `KTINGSGSPHSGACNQQT` and report
Reply: Not met

Task item: // repeat for `KTINGSGSPHSKAQYSRT` and report
Reply: Met

Task item: // repeat for `KTINGSGSPHSFTCNQQT` and report
Reply: Not met

Task item: // repeat for `KTINGSGSPHSLWKNQQT` and report
Reply: Not met

Task item: // repeat for KYSAGSGSPHSKAQNQQT (peptide inserted in AAV capsid) and report
Reply: Met

----------
Test system: brains, heart, liver, muscle, and DRG of the NHPs
assayExplanation: Maturation of TTM-001 and TTM-002 capsids, NGS enrichment in NHP tissues
Assay type: in vivo
details: NHP liver DNA; NGS; relative to AAV9 control
endpointName: Fold Enrichment relative to AAV9, Liver DNA (NHP)
State the result as a value with its unit after it.

Reference set (10 entries):
polymerSequence | result
KTINGSGSPHSLPYNQQT | 2.048 fold
KPRWGSGSPHSKAQNQQT | 0.386 fold
KTINGSGSPHSVKKNQQT | 3.908 fold
KTINGSGSPHWVAQNQQT | 3.634 fold
KTINGTRSPHKKAQNQQT | 1.152 fold
KTINGSGSPHSKQRPQQT | 2.347 fold
KTINGSGSPHSRFWNQQT | 6.955 fold
KTINGSGSPHPKRQNQQT | 2.355 fold
KTINGSGSPHSPPDNQQT | 0.033 fold
KPARGSGSPHSKAQNQQT | 1.391 fold

Batch request: Fold Enrichment relative to AAV9, Liver DNA (NHP) for each of the following sequences.
1. KTINGSGSPHSKAQTCRT
2. KTINGSGSPHSKFKNQQT
3. KTINGSYSPHCLAQNQQT (peptide inserted in AAV capsid)

Reply:
1. 6.369 fold
2. 1.074 fold
3. 0.309 fold

Batch request: Fold Enrichment relative to AAV9, Liver DNA (NHP) for each of the following sequences.
1. KTINGSGSPHSKCFLQQT
2. KTINGSGSPHSVRCNQQT
3. KTINGSGSPHSYLVNQQT

Reply:
["1.434 fold", "3.912 fold", "1.267 fold"]

Batch request: Fold Enrichment relative to AAV9, Liver DNA (NHP) for each of the following sequences.
1. KTINGSGSPHSKRSYQQT
2. KTINGSGSPHSKTRKQQT
3. KTINGSGSPHSLYQNQQT
4. KTINGSGSPHVYHQNQQT
5. KTINGSGSPHSYMRNQQT

Reply:
1: 2.116 fold; 2: 2.858 fold; 3: 1.503 fold; 4: 1.733 fold; 5: 2.293 fold
